Measured IC50 by item
- system.tested: melittin (Apis mellifera)
- assay.remarks: cell-based
- details: read-out: IC50, inhibition of melittin (converted)
Ends that are not written are not given here.
Supply the numeric figure in µM, leaving out any unit text.

INSERT INTO results (substance, value_kind, meas_value) VALUES
  ('NDEIVF-NH2 [NDEIVF-NH2]', 'IC50', 853);

Query (substance): Ac-IVILLY-NH2 [Ac-IVILLY-NH2] ; field requested: IC50
12.9

Query (substance): Ac-IVILLN-NH2 [Ac-IVILLN-NH2] ; field requested: IC50
17.9

Query (substance): Ac-IVILTM-NH2 [Ac-IVILTM-NH2] ; field requested: IC50
12.3

----------
- Test system: P. aeruginosa ATCC 27853
- assay.remarks: Antimicrobial assay, P. aeruginosa
- details: Tables 22-23
value.kind: IC50 (μg/ml) against P. aeruginosa

Reference set (2 entries):
INSERT INTO measurements (substance, meas_value) VALUES
  ('Ac-RRWWCL-NH2 [Ac-RRWWCL-NH2]', '46 to 54 µg/mL'),
  ('Ac-RRWWCD-NH2 [Ac-RRWWCD-NH2]', '> 500 µg/mL');

Query (substance): Ac-RRWWCY-NH2 [Ac-RRWWCY-NH2] ; field requested: IC50 (μg/ml) against P. aeruginosa
97 to 110 µg/mL

----------
- system.tested: melittin (Apis mellifera, UniProt P01501)
- Sequence (P01501 44-69 limits assumed): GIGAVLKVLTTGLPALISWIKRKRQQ
- assay.remarks: cell-based
- details: read-out: IC50, inhibition of melittin (converted)
Measured IC50 by item

Reference set (6 entries):
INSERT INTO results (substance, system_tested, value_kind, meas_value) VALUES
  ('Ac-IVIFFK-NH2 [Ac-IVIFFK-NH2]', 'melittin (Apis mellifera, UniProt P01501)', 'IC50', '> 310 µM'),
  ('Ac-IVIFFR-NH2 [Ac-IVIFFR-NH2]', 'melittin (Apis mellifera, UniProt P01501)', 'IC50', '> 299 µM'),
  ('Ac-IVILLR-NH2 [Ac-IVILLR-NH2]', 'melittin (Apis mellifera, UniProt P01501)', 'IC50', '> 326 µM'),
  ('Ac-IVIFFT-NH2 [Ac-IVIFFT-NH2]', 'melittin (Apis mellifera, UniProt P01501)', 'IC50', '30.8 µM'),
  ('Ac-IQIWCE-NH2 [Ac-IQIWCE-NH2]', 'melittin (Apis mellifera, UniProt P01501)', 'IC50', '6.73 µM'),
  ('Ac-FIIYFK-NH2 [Ac-FIIYFK-NH2]', 'melittin (Apis mellifera, UniProt P01501)', 'IC50', '419 µM');

Query (substance): Ac-IVILLF-NH2 [Ac-IVILLF-NH2] ; field requested: IC50
27.7 µM

Query (substance): Ac-IQIWFE-NH2 [Ac-IQIWFE-NH2] ; field requested: IC50
24 µM

Query (substance): Ac-FQIYCE-NH2 [Ac-FQIYCE-NH2] ; field requested: IC50
16.6 µM

----------
Measured HD50 (concentration necessary to lyse 50% of the cells) by item
- Tested on: Human red blood cells (RBCs)
- assay.remarks: Hemolytic activity
- Format: cell-based
- details: Tables 18-21
Square brackets hold non-standard residues; d marks the D form. Peptide text beside a SMILES is read from it. * marks the point of attachment. Fmoc = O=C(OCC1c2ccccc2-c2ccccc21)*
Supply the numeric figure in µg/mL, leaving out any unit text.

Reference set (4 entries):
INSERT INTO results (compound, meas_value) VALUES
  ('NCCCC[C@H](NC(=O)OCC1c2ccccc2-c2ccccc21)C(=O)N[C@@H](Cc1c[nH]c2ccccc12)C(=O)N[C@@H](Cc1ccc(O)cc1)C(=O)N[C@H](CC(N)=O)C(N)=O [(KFmoc)WYn-NH2] (Fmoc-KWY[dN]-NH2)', 257),
  ('CC(C)C[C@H](NC(=O)[C@H](CCCCN)NC(=O)[C@H](Cc1c[nH]c2ccccc12)NC(=O)[C@H](CCCCN)NC(=O)OCC1c2ccccc2-c2ccccc21)C(N)=O [(KFmoc)WKL-NH2] (Fmoc-KWKL-NH2)', 73),
  ('NCCCC[C@H](NC(=O)OCC1c2ccccc2-c2ccccc21)C(=O)N[C@@H](Cc1c[nH]c2ccccc12)C(=O)N[C@H](Cc1ccccc1)C(=O)N1CCC[C@H]1C(N)=O [(KFmoc)WfP-NH2] (Fmoc-KW[dF]P-NH2)', 40),
  ('NCCCC[C@H](NC(=O)OCC1c2ccccc2-c2ccccc21)C(=O)N[C@@H](Cc1c[nH]c2ccccc12)C(=O)N[C@@H](CCCCN)C(=O)N[C@@H](CS)C(N)=O [(KFmoc)WKC-NH2] (Fmoc-KWKC-NH2)', 43);

Consider the record given below.
Query (compound): NCCCC[C@H](NC(=O)OCC1c2ccccc2-c2ccccc21)C(=O)N[C@@H](Cc1c[nH]c2ccccc12)C(=O)N[C@@H](CCCCN)C(=O)N[C@@H](CO)C(N)=O [(KFmoc)WKS-NH2] (Fmoc-KWKS-NH2) ; field requested: HD50 (concentration necessary to lyse 50% of the cells)
206
